inhibition values by entry
Tested System: UniProtKB P14416
Test Name: Binding affinity to cloned human Dopamine receptor D2 expressed in A9L cells using [3H]spiperone at 100 nM concentration
Assay type: cell-based
Measure Name: inhibition (%)

- Structure Notation: "c1cnc(N2CCN(Cc3ccc4c(c3)Cc3ccccc3-4)CC2)nc1"
  Tested System: "UniProtKB P14416"
  Scale Unit: "%"
  Value Observed: 89
- Structure Notation: "c1cnc(N2CCN(Cc3cccc4c3sc3ccccc34)CC2)nc1"
  Tested System: "UniProtKB P14416"
  Scale Unit: "%"
  Value Observed: 97
- Structure Notation: "c1cnc(N2CCN(CC3c4ccccc4-c4ccccc43)CC2)nc1"
  Tested System: "UniProtKB P14416"
  Scale Unit: "%"
  Value Observed: 100
- Structure Notation: "c1cnc(N2CCN(Cc3cccc4c3oc3ccccc34)CC2)nc1"
  Tested System: "UniProtKB P14416"
  Scale Unit: "%"
  Value Observed: 94

---

These records show pIC50 for D(3) dopamine receptor (Homo sapiens, UniProt P35462).
pIC50: −log10 of the molar value.

- Structure Notation: "c1cnc(N2CCN(Cc3cccc4c3Cc3ccccc3-4)CC2)nc1"
  pIC50: 5.25
- Structure Notation: "Fc1ccc(-c2cncc(CN3CCN(c4ccccc4F)CC3)c2)cc1"
  pIC50: 8.10
- Structure Notation: "COc1ccc(-c2cccc(CN3CCN(c4ncccn4)CC3)c2)cc1"
  pIC50: 7.14
- Structure Notation: "Fc1ccc(-c2cncc(CN3CCN(c4ccc(F)cc4)CC3)c2)cc1"
  pIC50: 6.70
- Structure Notation: "c1cnc(N2CCN(Cc3cccc(-c4ccsc4)c3)CC2)nc1"
  pIC50: 6.70
- Structure Notation: "Fc1ccc(-c2cncc(CN3CCN(c4ccccc4)CC3)c2)cc1"
  pIC50: 7.48
- Structure Notation: "CC(C)Oc1cccnc1N(C)C1CCN(Cc2ccccc2)CC1"
  pIC50: 5.26
- Structure Notation: "COc1cccc(-c2cccc(CN3CCN(c4ncccn4)CC3)c2)c1"
  pIC50: 5.96
- Structure Notation: "Fc1ccc(-c2cncc(CN3CCN(c4ccccn4)CC3)c2)cc1"
  pIC50: 6.52
- Structure Notation: "c1cnc(N2CCN(Cc3cccc4c3-c3ccccc3C4)CC2)nc1"
  pIC50: 5.40
- Structure Notation: "Fc1ccc(-c2cncc(CN3CCN(c4cnccn4)CC3)c2)cc1"
  pIC50: 6.32
- Structure Notation: "Fc1ccc(-c2cccc(CN3CCN(c4ncccn4)CC3)c2)cc1"
  pIC50: 7.23

---

log10 IC50, D(2) dopamine receptor (Homo sapiens), per-entry values.
Measure Name: log10 IC50 (log10 of the value in nM)

- Structure Notation: "CC(C)Oc1cccnc1N(C)C1CCN(Cc2ccccc2)CC1"
  log10 IC50: 2.79
- Structure Notation: "Fc1ccccc1-c1cccc(CN2CCN(c3ncccn3)CC2)c1"
  log10 IC50: 2.40
- Structure Notation: "Fc1cccc(-c2cccc(CN3CCN(c4ncccn4)CC3)c2)c1"
  log10 IC50: 1.91
- Structure Notation: "Fc1ccc(-c2cncc(CN3CCN(c4ccc(F)cc4)CC3)c2)cc1"
  log10 IC50: 1.85
- Structure Notation: "c1cnc(N2CCN(Cc3cccc(-c4ccsc4)c3)CC2)nc1"
  log10 IC50: 2.48
- Structure Notation: "c1cnc(N2CCN(Cc3cccc4c3Cc3ccccc3-4)CC2)nc1"
  log10 IC50: 3.99
- Structure Notation: "c1cnc(N2CCN(Cc3cccc4c3-c3ccccc3C4)CC2)nc1"
  log10 IC50: 3.36
- Structure Notation: "Fc1ccc(-c2cncc(CN3CCN(c4cnccn4)CC3)c2)cc1"
  log10 IC50: 2.65
- Structure Notation: "Fc1ccc(-c2cncc(CN3CCN(c4ccccn4)CC3)c2)cc1"
  log10 IC50: 1.78

Source of measurements: ChEMBL document CHEMBL1130912
